The compounds below have reported pIC50 for ERα (Homo sapiens, UniProt P03372).
pIC50: −log10 of the molar value.
READOUT_TYPE: pIC50

>>> value_observed("OCc1cc(Cl)c(-c2ccc(O)cc2)c(Cl)c1")
7.03
>>> value_observed("OCc1cc(Br)c(-c2ccc(O)cc2)c(-n2cccc2)c1")
6.39
>>> value_observed("OCc1cc(Br)c(-c2ccc(O)cc2)c(-c2ccoc2)c1")
6.80
>>> value_observed("O=[N+]([O-])c1cc(CO)cc(Br)c1-c1ccc(O)cc1")
6.90

====

# TEST_SYSTEM: ERβ (Homo sapiens)
# Construct: purchased Panvera P2700
# Sequence (Q92731 whole entry): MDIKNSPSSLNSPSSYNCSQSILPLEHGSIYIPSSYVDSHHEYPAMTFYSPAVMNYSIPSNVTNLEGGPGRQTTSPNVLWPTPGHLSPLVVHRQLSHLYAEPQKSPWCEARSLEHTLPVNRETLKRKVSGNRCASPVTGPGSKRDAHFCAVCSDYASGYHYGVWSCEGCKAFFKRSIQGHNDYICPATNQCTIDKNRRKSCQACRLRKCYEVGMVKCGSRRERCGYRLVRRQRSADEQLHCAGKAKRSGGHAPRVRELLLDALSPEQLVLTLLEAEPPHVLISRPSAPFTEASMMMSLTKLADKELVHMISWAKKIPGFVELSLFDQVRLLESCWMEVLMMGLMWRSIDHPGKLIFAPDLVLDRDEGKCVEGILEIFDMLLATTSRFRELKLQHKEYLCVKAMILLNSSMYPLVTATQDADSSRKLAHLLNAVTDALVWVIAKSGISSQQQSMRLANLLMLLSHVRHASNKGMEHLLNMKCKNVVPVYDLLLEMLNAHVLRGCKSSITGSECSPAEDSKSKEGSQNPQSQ
# ASSAY_SUMMARY: Fluorescence Polarization Competition Assay, ERβ binding (Panvera kit)
# RECORDED_CONDITIONS: ratio of the two ER binding IC50 values
Lab note: compare ER[…] selectivity Fold Diff against 10 Fold. Equal or greater, write Yes. Smaller, write No.

>>> group_label("OCc1cc(Br)c(-c2ccc(O)cc2)c(-n2cccc2)c1")
"Yes"
>>> group_label("O=[N+]([O-])c1cc(CO)cc(Br)c1-c1ccc(O)cc1")
"Yes"
>>> group_label("CN(C)c1cc(CO)cc(Br)c1-c1ccc(O)cc1")
"Yes"
>>> group_label("OCc1cc(Br)c(-c2ccc(O)cc2)c(-c2ccoc2)c1")
"Yes"
>>> group_label("OCc1cc(Br)c(-c2ccc(O)cc2)c(Br)c1")
"No"
>>> group_label("OCc1cc(Cl)c(-c2ccc(O)cc2)c(Cl)c1")
"No"
